The following sequences are shown together with reported self-splicing fitness (ln) values.
Assay: self-splicing fitness, log relative to wild type (ln ratio); higher = more splicing; Tetrahymena group I intron in knt gene, E. coli kanamycin selection, DiMSum; sequences stand for … in CUCUCU…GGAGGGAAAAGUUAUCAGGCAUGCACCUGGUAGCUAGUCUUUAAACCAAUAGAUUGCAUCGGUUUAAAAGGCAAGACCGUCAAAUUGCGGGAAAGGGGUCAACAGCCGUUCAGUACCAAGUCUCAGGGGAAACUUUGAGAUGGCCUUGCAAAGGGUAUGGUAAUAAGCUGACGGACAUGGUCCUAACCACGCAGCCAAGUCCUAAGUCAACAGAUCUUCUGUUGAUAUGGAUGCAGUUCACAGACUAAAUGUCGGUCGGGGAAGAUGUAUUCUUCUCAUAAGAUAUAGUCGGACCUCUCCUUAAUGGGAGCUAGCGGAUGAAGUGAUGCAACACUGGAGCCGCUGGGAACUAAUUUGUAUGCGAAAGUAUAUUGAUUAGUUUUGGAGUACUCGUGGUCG;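 further: selection with 25 µg/mL kanamycin versus none on LB agar overnight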
Conditions: 30 °C
Measurement Type: self-splicing fitness (ln)

macromolecule_sequence=ACCGAGCAAUAUUACGGAGU number=-3.72
macromolecule_sequence=GCGAAGCAAUAUUACGGAAC number=-2.72
macromolecule_sequence=UCGAAGCAAUAUUACGAAAA number=-3.1
macromolecule_sequence=CGCCAGCAAUAUUACGCCGC number=-2.72
macromolecule_sequence=AGCGAGCAAUAUUACGUAAC number=-3.79
macromolecule_sequence=UCGUAGCAAUAUUACGAUGG number=-1.88
macromolecule_sequence=GGCCAGCAAUAUUACGGCCG number=-3.47
macromolecule_sequence=UGUAAGCAAUAUUACGUGGA number=-2.52
macromolecule_sequence=GCUAAGCAAUAUUACGAACA number=-1.65
macromolecule_sequence=CCAGAGCAAUAUUACGAUUA number=-3.29
macromolecule_sequence=GAUUAGCAAUAUUACGUAAA number=-2.19
macromolecule_sequence=UUCGAGCAAUAUUACGAGCC number=-3.05
macromolecule_sequence=GGAAAGCAAUAUUACGCAGG number=-2.91
macromolecule_sequence=CUACAGCAAUAUUACGAGCG number=-0.282
macromolecule_sequence=GUACAGCAAUAUUACGAAAA number=-1.66
macromolecule_sequence=UUCCAGCAAUAUUACGAGGU number=-1.96
macromolecule_sequence=GCAAAGCAAUAUUACGCACC number=-1.15
macromolecule_sequence=CCAUAGCAAUAUUACGGGGG number=-3.01
macromolecule_sequence=GUAGAGCAAUAUUACGACCU number=-1.39
macromolecule_sequence=CUUAAGCAAUAUUACGACUG number=0.139
macromolecule_sequence=CUUGAGCAAUAUUACGGGUC number=-3.49
macromolecule_sequence=UUCAAGCAAUAUUACGCUGU number=-2.98
macromolecule_sequence=GGAGAGCAAUAUUACGCGUA number=-2.02
macromolecule_sequence=CAAAAGCAAUAUUACGGAAU number=-3.21
macromolecule_sequence=CGAAAGCAAUAUUACGCCGU number=-2.98
macromolecule_sequence=CAGGAGCAAUAUUACGUGGG number=-2.85
macromolecule_sequence=UAUGAGCAAUAUUACGCUGC number=-4.14
macromolecule_sequence=GCGAAGCAAUAUUACGCACG number=-2.58
macromolecule_sequence=AAUGAGCAAUAUUACGUGGU number=-2.41
macromolecule_sequence=GGAAAGCAAUAUUACGGGAC number=-2.53
macromolecule_sequence=GUGUAGCAAUAUUACGGCCC number=0.713
macromolecule_sequence=CGUCAGCAAUAUUACGAAGU number=-3.92
macromolecule_sequence=AUCAAGCAAUAUUACGGUCA number=-1.76
macromolecule_sequence=UGGGAGCAAUAUUACGUGUC number=-2.08

From: the supplement of paper PMC7877785
